B1: SAM and SH3 domain-containing protein 1, residues 630 to 700; numbered along this chain, O94885 (parent)
chain: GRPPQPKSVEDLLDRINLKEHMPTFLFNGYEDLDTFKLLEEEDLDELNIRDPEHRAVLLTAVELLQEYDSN

# Variants of: B1
# PROTOCOL TEXT: abundance fitness (aPCA) (normalised: wild type 0, dead -1); higher = more abundant; growth selection in yeast, the domain comes from the species named
# EXPERIMENTAL CONDITIONS: Homo sapiens
Property: abundance fitness; scope: individual variants
Note: the reply should be a number with no unit written.

- MUTANT DESIGNATION: "K37F"
  VALUE: -0.946
- MUTANT DESIGNATION: "L26K"
  VALUE: 0.034
- MUTANT DESIGNATION: "K37G"
  VALUE: -0.669
- MUTANT DESIGNATION: "Q66H"
  VALUE: -0.035
- MUTANT DESIGNATION: "F27E"
  VALUE: 0.491

Query string: Recorded abundance fitness for E53P , please?
Result string: -0.924
